As shown below, each of these sequences has a reported binding signal value.
Target Under Test: GST-VND3 NAC domain (Arabidopsis thaliana, UniProt Q9FH59 12-162)
Sequence: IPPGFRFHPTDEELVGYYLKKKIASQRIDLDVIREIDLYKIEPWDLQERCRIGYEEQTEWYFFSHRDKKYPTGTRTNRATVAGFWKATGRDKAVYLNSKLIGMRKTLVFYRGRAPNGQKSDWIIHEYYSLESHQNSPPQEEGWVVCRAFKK
Assay Method Text: universal protein binding microarray (PBM); high values mean tight binding
Measurement Setup: protein: recombinant; tags: GST; chain copies: 2; dsDNA, one strand shown
Please reply with the bare figure in E-score and do not write the unit itself.

# Entry Sequence, Unit Spec, binding signal
measured = [
    ("CACGGAAC", "E-score", 0.446),
]

Item: GCACGGAA | binding signal: 0.402

Item: ACGTAAGC | binding signal: 0.437

Item: CAGTCAAC | binding signal: 0.0605

* * *

As shown below, each of these sequences has a reported binding signal value.
Target Under Test: GST-ANAC092(1-176) (Arabidopsis thaliana, UniProt Q9FKA0 1-176)
Sequence: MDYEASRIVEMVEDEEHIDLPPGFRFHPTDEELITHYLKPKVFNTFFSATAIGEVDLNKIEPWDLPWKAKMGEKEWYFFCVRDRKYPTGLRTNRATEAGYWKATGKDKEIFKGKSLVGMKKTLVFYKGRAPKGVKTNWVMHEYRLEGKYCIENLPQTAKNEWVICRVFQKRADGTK
Assay Method Text: universal protein binding microarray (PBM); high values mean tight binding
Measurement Setup: protein: recombinant; tags: GST; chain copies: 2; dsDNA, one strand shown
Please reply with the bare figure in E-score and do not write the unit itself.

Item: CACACGCC | binding signal: 0.396

Item: ATACGTAA | binding signal: 0.462

Item: CTGACCGC | binding signal: 0.0725

* * *

Target Under Test: GST-NST2(1-184) (Arabidopsis thaliana, UniProt Q9M274 1-184)
Sequence: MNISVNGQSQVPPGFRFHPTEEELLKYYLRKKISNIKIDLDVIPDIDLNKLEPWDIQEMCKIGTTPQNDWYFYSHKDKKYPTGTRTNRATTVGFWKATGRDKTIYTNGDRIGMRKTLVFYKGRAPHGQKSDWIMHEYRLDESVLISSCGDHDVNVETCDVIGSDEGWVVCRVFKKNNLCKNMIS
Assay Method Text: universal protein binding microarray (PBM); high values mean tight binding
Measurement Setup: protein: recombinant; tags: GST; chain copies: 2; dsDNA, one strand shown
Experimental Endpoint: binding signal (E-score)
Please reply with the bare figure in E-score and do not write the unit itself.

Worked examples follow.
# Entry Sequence, binding signal [E-score]
data = [
    ("ATACGTAT", 0.186),
    ("GTGCCGTA", 0.263),
    ("AAGGAAAT", 0.15),
    ("CTTACCCC", 0.175),
    ("ATACGCAA", 0.406),
]

Item: AGTAAGTA | binding signal: 0.218

Item: AAGCAAAC | binding signal: 0.31

Item: AGAAGCAA | binding signal: 0.284

Item: ACGTACGC | binding signal: 0.193

Item: GTACGCGA | binding signal: 0.129

Item: ACGCAAGA | binding signal: 0.315

Item: GTACGCTA | binding signal: 0.288

Item: ATACTTAA | binding signal: 0.224

Item: AACACGTC | binding signal: 0.0538

Item: ATTACTTC | binding signal: 0.267

Item: AAGTTACC | binding signal: 0.288

Item: AACACGCA | binding signal: 0.263

Item: TGAAGGAA | binding signal: 0.197

Item: CACGTTAC | binding signal: 0.328

* * *

Target Under Test: GST-WRKY1(266-371) (Arabidopsis thaliana, UniProt Q9SI37 266-371)
Sequence (Q9SI37 266-371): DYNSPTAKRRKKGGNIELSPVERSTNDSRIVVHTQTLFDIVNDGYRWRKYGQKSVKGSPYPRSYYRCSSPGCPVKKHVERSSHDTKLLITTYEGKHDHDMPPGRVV
Assay Method Text: universal protein binding microarray (PBM); high values mean tight binding
Measurement Setup: protein: recombinant; tags: GST; dsDNA, one strand shown
As shown below, each of these sequences has a reported binding signal value.
Please reply with the bare figure in E-score and do not write the unit itself.

Worked examples follow.
# Entry Sequence, Obs Value
rows = [
    ("AGCGTCAA", 0.408),
    ("AATTGACC", 0.47),
    ("ACGTTGAC", 0.489),
    ("GGAAGTCA", 0.429),
    ("GAGGTCAA", 0.485),
]

Item: GTTTGACA | binding signal: 0.417

Item: AGGGTCAG | binding signal: 0.403

* * *

As shown below, each of these sequences has a reported binding signal value.
Target Under Test: GST-SND1(1-203) (Arabidopsis thaliana, UniProt Q9LPI7 1-203)
Sequence: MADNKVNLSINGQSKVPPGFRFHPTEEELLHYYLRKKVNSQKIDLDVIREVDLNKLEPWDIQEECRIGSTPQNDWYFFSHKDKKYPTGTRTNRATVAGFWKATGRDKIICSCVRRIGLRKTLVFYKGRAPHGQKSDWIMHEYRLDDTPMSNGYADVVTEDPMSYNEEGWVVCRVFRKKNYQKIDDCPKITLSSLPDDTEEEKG
Assay Method Text: universal protein binding microarray (PBM); high values mean tight binding
Measurement Setup: protein: recombinant; tags: GST; chain copies: 2; dsDNA, one strand shown
Please reply with the bare figure in E-score and do not write the unit itself.

Worked examples follow.
# Entry Sequence, binding signal (E-score)
data = [
    ("CTTACCCC", 0.198),
    ("AACGTGTA", 0.295),
    ("ATGCGTAC", 0.292),
]

Now turn to the next sequence.
Item: CTAAGGAA | binding signal: 0.306

* * *

Target Under Test: GST-ANAC019 NAC domain (Arabidopsis thaliana, UniProt Q9C932 14-162)
Sequence: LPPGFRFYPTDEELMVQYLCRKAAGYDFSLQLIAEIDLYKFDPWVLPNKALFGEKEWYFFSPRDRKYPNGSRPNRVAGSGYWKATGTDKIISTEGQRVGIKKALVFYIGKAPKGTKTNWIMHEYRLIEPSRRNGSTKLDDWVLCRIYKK
Assay Method Text: universal protein binding microarray (PBM); high values mean tight binding
Measurement Setup: protein: recombinant; tags: GST; chain copies: 2; dsDNA, one strand shown
Experimental Endpoint: binding signal

Worked examples follow.
# Entry Sequence, binding signal
data = [
    ("ACGTTACG", "0.302 E-score"),
    ("GAAACGTA", "0.241 E-score"),
    ("AGTCAAGG", "0.0733 E-score"),
    ("AACACGTC", "0.33 E-score"),
]

Item: GCGTGCAC | binding signal: 0.255 E-score

Item: GTACGGAA | binding signal: 0.458 E-score

Item: GCACGTTA | binding signal: 0.153 E-score

* * *

Target Under Test: GST-ANAC092(1-176) (Arabidopsis thaliana, UniProt Q9FKA0 1-176)
Sequence: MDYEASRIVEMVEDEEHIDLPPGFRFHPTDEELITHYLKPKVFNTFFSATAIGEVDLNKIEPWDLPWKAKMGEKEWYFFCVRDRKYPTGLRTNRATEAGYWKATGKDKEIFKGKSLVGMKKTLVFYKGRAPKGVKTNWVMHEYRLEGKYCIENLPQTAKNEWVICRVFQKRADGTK
Assay Method Text: universal protein binding microarray (PBM); transcription factors of Arabidopsis thaliana; high values mean tight binding
Measurement Setup: protein: recombinant; tags: GST; chain copies: 2; dsDNA, one strand shown
Experimental Endpoint: binding signal (E-score)
Please reply with the bare figure in E-score and do not write the unit itself.

Worked examples follow.
# Entry Sequence, Unit Spec, Obs Value
records = [
    ("TAGAGTAA", "E-score", 0.177),
    ("CAAGTTAC", "E-score", 0.371),
]

binding signal of AGCTTTCC , assay on GST-ANAC092(1-176) (Arabidopsis thaliana, UniProt Q9FKA0 1-176), is 0.171

binding signal of TAAGTTAA , assay on GST-ANAC092(1-176) (Arabidopsis thaliana, UniProt Q9FKA0 1-176), is 0.191

binding signal of GACGCAAC , assay on GST-ANAC092(1-176) (Arabidopsis thaliana, UniProt Q9FKA0 1-176), is 0.438

binding signal of ACGCTACC , assay on GST-ANAC092(1-176) (Arabidopsis thaliana, UniProt Q9FKA0 1-176), is 0.455

binding signal of GGCTTGAC , assay on GST-ANAC092(1-176) (Arabidopsis thaliana, UniProt Q9FKA0 1-176), is 0.0969

binding signal of ATTACGCA , assay on GST-ANAC092(1-176) (Arabidopsis thaliana, UniProt Q9FKA0 1-176), is 0.35

binding signal of ACACGCCT , assay on GST-ANAC092(1-176) (Arabidopsis thaliana, UniProt Q9FKA0 1-176), is 0.319

binding signal of ACGTAAAA , assay on GST-ANAC092(1-176) (Arabidopsis thaliana, UniProt Q9FKA0 1-176), is 0.366

binding signal of GTTCCGTA , assay on GST-ANAC092(1-176) (Arabidopsis thaliana, UniProt Q9FKA0 1-176), is 0.351

binding signal of AACACGGA , assay on GST-ANAC092(1-176) (Arabidopsis thaliana, UniProt Q9FKA0 1-176), is 0.298

binding signal of GGAAGTAA , assay on GST-ANAC092(1-176) (Arabidopsis thaliana, UniProt Q9FKA0 1-176), is 0.249

binding signal of GTTAAGTA , assay on GST-ANAC092(1-176) (Arabidopsis thaliana, UniProt Q9FKA0 1-176), is 0.119

Provenance of the data: paper PMC4081100
